# system: GalNAc(a1-3)GalNAc(b1-3)Gal(a1-4)Gal(b1-4)GlcNAc
# assay.overview: glycan array binding signal (z-score within array); higher = stronger binding
# test.conditions: glycan notation: IUPAC condensed, linker removed
About 410 targets per protein were measured; listed, in parts, are those with the strongest signals and a random draw of the rest.
quantity.name: glycan array binding signal (z-score)
One number for each entry.

Need glycan array binding signal (z-score) for each of these binders.
1. EfCBM33A (Enterococcus faecalis), Q838S1 (protein) MKKSLLTIVLAFSFVLGGAALAPTVSEAHGYVASPGSRAFFGSSAGGNLNTNVGRAQWEPQSIEAPKNTFITGKLASAGVSGFEPLDEQTATRWHKTNITTGPLDITWNLTAQHRTASWDYYITKNGWNPNQPLDIKNFDKIASIDGKQEVPNKVVKQTINIPTDRKGYHVIYAVWGIGDTVNAFYQAIDVNIQ
2. LlpA (Burkholderia cenocepacia) (protein) MGSSHHHHHHSSGLVPRGSHKILGSNETLSAGNVVYSDNGQYHLAMQTDGNLVVYGPTGAVWQSQTSGSGGNRAVMQGDGNLVIYRADNTAAWSSKTAHPGAFLAVQDDGNVVIYWPRPAWASNTSDPATQQSAESKYLASGSTMSAGQTVTVAQYMLVFQADGNLVLYKNGGNPIWSTGTQGKGATYAVMQSDGNFVIYAGSTALWSTKTNGANGAQLVLQSDGNLVIYAPTAAWSTKFGLVTAPTSTSTSNNGPGSGICVGVCPPHPLNGNPFSPVGVGTTGLGFPTPGYPGAAF
3. RBMC1 (Vibrio cholerae) (protein) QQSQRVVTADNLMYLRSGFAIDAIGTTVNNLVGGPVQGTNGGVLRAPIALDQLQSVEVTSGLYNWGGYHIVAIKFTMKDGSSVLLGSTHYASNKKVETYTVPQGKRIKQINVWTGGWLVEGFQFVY

[-0.606, -0.419, -0.064]
